This listing pairs variants with measured protein stability index.
B1: RAB22A (parent)
chain: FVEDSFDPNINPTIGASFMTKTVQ

- Variants of: B1
- ASSAY_INFO: protein stability index of a GFP-peptide fusion (GPS, HEK-293T) (PSI 1-6); higher = more stable;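 also: lentivirally expressed fusions sorted by FACS into six bins by GFP to DsRed ratio, PSI derived from sequencing read proportions per bin multiplied by bin number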
- CONDITION_CONTEXT: c terminus: a fixed tail appended
Could you respond with only the numeric value?

Examples with answers:
INSERT INTO assay_data (mutant_code, assay_result) VALUES
  ('T13K', 2.29),
  ('G15H', 2.08),
  ('F1A', 4.1);

Tell me measured protein stability index for `T20C` please.
2.38

Given `P12Q` , respond with its protein stability index.
2.45
